Consider the following binders; for each one, report its Anti-CD28 Fab (SEQ ID NOs: 202, 203) signal.
biological target: T1, anti-CD28 Fab (SEQ ID NOs: 202, 203); assay: phage binding ELISA on captured biotinylated Fab;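 further: clonal phage supernatants added to wells preincubated with CD28 antigen or blocking buffer only, bound phage detected by ELISA with horseradish-conjugated anti-M13 antibody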
T1 construct: biotinylated and captured on neutravidin coated plates in the phage ELISA
T1 sequence (VH, as listed by the source, chain 1 of 2): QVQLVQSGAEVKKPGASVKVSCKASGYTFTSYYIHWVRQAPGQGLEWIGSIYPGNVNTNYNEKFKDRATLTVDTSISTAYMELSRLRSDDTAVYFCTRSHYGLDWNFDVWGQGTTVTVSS
T1 sequence (VL, as listed by the source, chain 2 of 2): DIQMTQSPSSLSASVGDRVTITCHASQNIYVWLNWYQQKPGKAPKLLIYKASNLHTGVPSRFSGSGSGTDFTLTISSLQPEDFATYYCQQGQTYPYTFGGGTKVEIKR
Answers are plain numbers.

Record excerpt, results attached:
MCSAGANYPWPWCL [Phage-979] ... 1.97
LCAAGASYPWPTCL [Phage-967] ... 2
TCAAGATYSWPMCF [Phage-966] ... 2
LCEEFADYPWPMCL [Phage-965] ... 2.01
SCAAGATYSWPMCL [Phage-974] ... 1.99

Shifting focus to the binder that follows.
INPUT: Give its Anti-CD28 Fab (SEQ ID NOs: 202, 203) signal value. Item: TCSEGATYTWPWCF [Phage-954]
OUTPUT: 2.05
